Catalogue of binders with associated Relative cAMP EC50
tgt: human glucagon receptor (human) (UniProt P47871)
Sequence (P47871 26-477): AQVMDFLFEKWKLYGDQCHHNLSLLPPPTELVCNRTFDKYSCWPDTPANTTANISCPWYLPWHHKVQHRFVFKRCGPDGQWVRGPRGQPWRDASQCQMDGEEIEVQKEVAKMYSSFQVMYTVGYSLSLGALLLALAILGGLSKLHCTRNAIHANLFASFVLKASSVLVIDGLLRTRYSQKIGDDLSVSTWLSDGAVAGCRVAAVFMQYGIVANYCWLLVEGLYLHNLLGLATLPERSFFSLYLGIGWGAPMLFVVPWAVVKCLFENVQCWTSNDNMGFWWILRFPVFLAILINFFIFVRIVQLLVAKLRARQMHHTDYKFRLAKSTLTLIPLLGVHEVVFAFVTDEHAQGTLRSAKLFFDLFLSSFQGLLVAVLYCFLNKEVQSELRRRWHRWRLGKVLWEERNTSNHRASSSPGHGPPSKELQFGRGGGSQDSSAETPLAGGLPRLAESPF
test summary: cell-based or functional assay
quantity name: Relative cAMP EC50 (nM)

binder	result number
YXQGTFTSDXSKXLDKKAQXAFIEYLIEXGPSSGAPPPSGSEE (synthetic construct; SITE 2: note = 2-Aminoisobutyric Acid; SITE 10: note = 3-(4-Pyridyl)-L-alanine; SITE 13: note = alpha-methyl-leucine; SITE 17: note = Lysine is chemically modified through conjugation of the epsilon-amino group of the Lysine side chain with (gamma-Glu)2-CO-(CH2)16-CO2H; SITE 20:) [Example 905]	12.3
YXQGTFTSDXSXXLDKKAQXAFIEYLIAGGPSSGEPPPSGTEEE (synthetic construct; SITE 2: note = 2-Aminoisobutyric Acid; SITE 10: note = 3-(4-Pyridyl)-L-alanine; SITE 12: note = L-ornithine; SITE 13: note = alpha-methyl-leucine; SITE 17: note = Lysine is chemically modified through conjugation of the epsilon-amino group of the Lysine side chain with (gamma-Gl)) [Example 982]	3.91
YXQGTFTSDFSRXLDKKAQXAFIEYLLAGGPSSGAPPPSGS (synthetic construct; SITE 2: note = 2-Aminoisobutyric Acid; SITE 13: note = alpha-methyl-leucine; SITE 17: note = Lysine is chemically modified through conjugation of the epsilon-amino group of the Lysine side chain with (2-[2-(2-Amino-ethoxy)-ethoxy]-acetyl)-(gamma-Glu)-CO-(CH2) 18-CO2H; SITE 20: n) [Example 77]	15.3
YXQGTFTSDXSQXLDXKAQXAFIEXLLAGGPSSGAPPPSGSEEE (Lys acylated γGlu-C18 diacid; non-natural residues; C-amide; synthetic construct; SITE 2: note = 2-Aminoisobutyric Acid; SITE 10: note = 3-(4-Pyridyl)-L-alanine; SITE 13: note = alpha-methyl-leucine; SITE 16: note = L-ornithine; SITE 17: note = Lysine is chemically modified through conjugation of the epsilon-amino group of the Lysine side chain with D-Glutami) [Example 1082]	12.3
YXQGTFTSDFSXXLDKKAQXAFIEYLLEGGPSSGAPPPGGSX (synthetic construct; SITE 2: note = 2-Aminoisobutyric Acid; SITE 12: note = L-ornithine; SITE 13: note = alpha-methyl-leucine; SITE 17: note = Lysine is chemically modified through conjugation of the epsilon-amino group of the Lysine side chain with (2-[2-(2-Amino-ethoxy)-ethoxy]-acetyl)-(gamma-Glu)) [Example 66]	3.71
YXQGTFTSDFSXXLDKKAQXAFIEYLLEGGPSSGAPPPGGX (synthetic construct; SITE 2: note = 2-Aminoisobutyric Acid; SITE 12: note = L-ornithine; SITE 13: note = alpha-methyl-leucine; SITE 17: note = Lysine is chemically modified through conjugation of the epsilon-amino group of the Lysine side chain with (2-[2-(2-Amino-ethoxy)-ethoxy]-acetyl)-(gamma-Glu)) [Example 261]	5.49
YXQGTFTSDXSXXLDXKAQXAFIEYLIAGGPSSGEPPPSGTE (Aib, 4Pal, Orn, αMeL, Me4Pal; (γGlu)2-C18 diacid on Lys; amide; synthetic construct; SITE 2: note = 2-Aminoisobutyric Acid; SITE 10: note = 3-(4-Pyridyl)-L-alanine; SITE 12: note = L-ornithine; SITE 13: note = alpha-methyl-leucine; SITE 16: note = L-ornithine; SITE 17: note = Lysine is chemically modified through conjugation of the epsilon-amino group of the Lys) [Example 984]	4.5
YXQGTXTSDXSIXLDKKAQXXFIEYLQEGGPSSGEPPPSGSEE (non-natural residues; K acylated (γGlu)2-C18 diacid; C-amide; synthetic construct; SITE 2: note = 2-Aminoisobutyric Acid; SITE 6: note = alpha-methyl-2-fluoro-L-phenylalanine; SITE 10: note = 3-(4-Pyridyl)-L-alanine; SITE 13: note = alpha-methyl-leucine; SITE 17: note = Lysine is chemically modified through conjugation of the epsilon-amino group of the Lysine) [Example 639]	8
YXQGTXTSDXXIXLDXKAQXXFIEXLQEGGPSSGEPPPEGTE (synthetic construct; SITE 2: note = 2-Aminoisobutyric Acid; SITE 6: note = alpha-methyl-2-fluoro-L-phenylalanine; SITE 10: note = 3-(4-Pyridyl)-L-alanine; SITE 11: note = alpha-methyl-L-serine; SITE 13: note = alpha-methyl-leucine; SITE 16: note = L-ornithine; SITE 17: note = Lysine is chemically mo) [Example 503]	3.98
YXQGTFTSDFSXXLDXKAQXAFIEXLLEGGPSSGAPPPGGSEE (non-natural residues; Lys acylated C18 diacid via γGlu2; C-term amide; synthetic construct; SITE 2: note = 2-Aminoisobutyric Acid; SITE 12: note = L-ornithine; SITE 13: note = alpha-methyl-leucine; SITE 16: note = L-ornithine; SITE 17: note = Lysine is chemically modified through conjugation of the epsilon-amino group of the Lysine side chain with (gamma-Glu)2-CO-(CH2)) [Example 1050]	6.8
YXQGTFTSDFSKXLDKKAQXAFIEYLLEXGPSSGAPPPSEG (synthetic construct; SITE 2: note = 2-Aminoisobutyric Acid; SITE 13: note = alpha-methyl-leucine; SITE 17: note = Lysine is chemically modified through conjugation of the epsilon-amino group of the Lysine side chain with (2-[2-(2-Amino-ethoxy)-ethoxy]-acetyl)-(gamma-Glu)-CO-(CH2) 16-CO2H; SITE 20: n) [Example 57]	4.37
YXQGTXTSDXXIXLDXKAQXEFIEXLIEGGPSSGEPPPSGE (non-natural residues (Aib, αMeF, 4Pal, Orn, Me4Pal); lipidated Lys; C-amide; synthetic construct; SITE 2: note = 2-Aminoisobutyric Acid; SITE 6: note = alpha-methyl-L-phenylalanine; SITE 10: note = 3-(4-Pyridyl)-L-alanine; SITE 11: note = alpha-methyl-L-serine; SITE 13: note = alpha-methyl-leucine; SITE 16: note = L-ornithine; SITE 17: note = Lysine is chemically modified th) [Example 1165]	2.68
